Assay: yeast display, Sf9 membrane polyspecificity reagent, FACS + sequencing; frameworks hold sequencing errors

query-sequence | polyreactivity (PSR sort gate)
QVQLVESGGGLVQAGGSLRLSCAASGSIFVYYAMGWYRQAPGKERELVAAINSGSITKYADSVKGRFTISRDNAKNTVYLQMNSLKPEYTAVYYCAARYDNTYRTETSYPRYYSWGQGTQVTVSS | high polyreactivity
QVQLVESGGGLVQAGGSLRLSCAASGRTFKFYAMGWYRQAPGKERELVAAISSSGGRTYYADSVKGRFTISRDNAKNTVYLQMNSLTPEDTAVYYCAAVPGSKFVQKDDYWGQGTQVTVSS | low polyreactivity
QVQLVESGGGLVQAGGSLRLSCAASGSIFLEYAMGWYRQAPGKERELVAAISSSGGSTYYADSVKGRFTISRDNAKNTVYLQMNSLKPEDTAVYYCAAGKSKYGVRGYYWGQGTQVTVSS | high polyreactivity
QVQLVEACGGLVQAGGSLRLSCAASRSIFPYNAMGWYRQAPGKDRELVATMSSGGSTNYADSVKGRFTISRDNAKNTVYLQKNSLKPEDTAVYYCNAEAAYYPLWMDYWGQGTQVTVSS | low polyreactivity
QVQLVESGGGLVQAGGSLRLSCAASGSTFWFYAMGWYRQAPGKERELVAANSRSSGSTYYADSVKGRFTISRDNAKNTVYLQMNSLKPEDTAVFSCAAVEPDRDYGYWGQGTQVTVSS | low polyreactivity
QVQLVESGGGLVQAGGSLRLSCAASGSTFASNVMGWYRQAPGKERELVAAITRGDRTHYAHSVKGRFTISRDNAKNTVYLQMNSLKPEDPAVYYCAKVTTLGRSRDYWGQGTQVTVSS | low polyreactivity
QVQLVESGGGLFQAGGSLSLRCAASGSIFEVNALGWDRQGPGKERELVAAISQRGTRTYYADSVKGRFTMSRDYAKNTVYLQMNILKPEDTAVYYCNRGGWRQYDSWGQGTQVTVST | high polyreactivity
QVQLVESGGRLVQAGGSLRLSCAASGSIFTVYAMGCYRQAPGKERELVAAIRRTGSRTYYADSVKGRFTNSRDNAKNTVYLQMNSLKPEDTAVYYCAADVWFDRRSVRLNYWGQGTQVTVSS | high polyreactivity
QVQLVESGGGFVQAGGSLRLSCAASGSTFSHYTMGWYSQAPGNERELLAAINYGGASTYYADSVKGRFTISRDNAKNTVYLQMNSQKPEDTAVYYCAAANRPSEQDNYWGQGTQVTVSS | low polyreactivity
QVQLVESGGGLVQAGGSLRLSCAASGRTFWGYAMGWYRPAPGKERELVAAISSGGDTTYADSVKGRFTISRDNAKNTVYLQMNSLKPEDTAVFYCAADRWYSRYTRYGYWGQGTQVTVSS | low polyreactivity
QVQLVESGGGLVQAGGSLRLSCAASGRIFGRNAMGWYRQAPGKERELVASITSGGGTNYADSVKGRFTISRDNAKNTVYLQMNSLKPEDTAVYYCAAKRHLEGYSGSIGRYYYWGQGTQVTVSS | low polyreactivity

###

Test: yeast display, Sf9 membrane polyspecificity reagent, FACS + sequencing; frameworks hold sequencing errors

query-sequence | polyreactivity (PSR sort gate)
QVQLVESGGGLVQAGGSLRLSCAASGSIFTIYAMGWYRQAPGKERELVATITGGGGSTYYADSVKGRFTISRDNAKNTVYLQMNSLKPEDTAVYYCATDFRRTRSYGNSRSYGYWGQGTQVTVSS | low polyreactivity
QVQLVESGGGLVQAGGSLRLSCAASGSIFPRDAMGRYRQAPGKERELVAAITGSGSSTYYADSVKGRFTISRDNAKNTVYLQMNSLKPEDTAVYYCNTARPTAAYDYWGQGTKVTVSS | low polyreactivity

###

Assay: yeast display, Sf9 membrane polyspecificity reagent, FACS + sequencing; frameworks hold sequencing errors

query-sequence | polyreactivity (PSR sort gate)
QVQLVESGGGLVQAGGSLRLSCAATGITFYINAMGSYRQAPGKERELVAVIDSRGSSTFYADSVKGRFTISLDYAKNTVYLQMNSLKPEDTAVYYCAVEGYPGRYRDPGDLYYYWGQGTQVTVSS | low polyreactivity
QVQLVESGGGLVQAGGSLRLSCAASGYIFGVYAMGWYRQAPGKERELVAAISYGVGSTYYADSVKGRFTISRDNAKNTVYLQMNSLKPEDNAVYYCAAEDTQVRWSPVRPLEDYWGQGTQVTVSS | low polyreactivity
QVQLVESGGGLVQAGGSLRLSCAASGSIFKYYAMGWYRQAPGKERELVAAISRSGTSTYYADSVKGRFTISRDNAKNTVYLQMNSLKPEDTAVYYCAARLSYYSRMNYWGQGTQVTVSS | high polyreactivity
QVQLVESGGGLVQAGGSLRLSCAASGSILIVYAMGWYRQAPGKERELVAAITRGGRTNYADSVKGRFTISRDNAKNTVYLQMNSLKPEDTAVYYCAARVLPANVKPYNYWGQGTQVTVSS | high polyreactivity
QDQLVDSGGGLVQAGGSLRLSCAASGFIFWYYAMGWYRQEPGKERELVAAITSGGNTNYADSVKGRFTISRDNAKNTFYLQMNSLKPEDTAVYYCATGRASGREHDSWGHGTQVTVSS | low polyreactivity
QVQLVESGGGLVQAGGSLRLSCAASGRTFDPYAMGWYRQAPGKERELVASISRGGSTYADSVKGRFTISRDNAKNTVFLQMNSLKPEDTAVYYCNTSLYTEGDAMDYWGQGTQVTVSS | low polyreactivity
QVQLVESGGGLVQAGGRLRLSCAASGSTFRRNAMGWYRQAPGKERELVATISPGARTNYADSVKGRFTISRDNAKNTVYLQMNSLKPEDTAVYYCNAEFTLLYPLYDYWGQGTQVTLSS | low polyreactivity
QVQLVESGGGLVQAGGSLRLSCAASGRIFGRYGMGWYRQAPGKERELVAAISRSGDRTYYADSVKGRFTISRDNAKNTVYLQMNSLKPEDTAVYYCAAYSYRYDYWGQGTQVTVSS | high polyreactivity
QVQLVESGGGLVQAGGSLRLSCAASGRTFKYYAMGWYRQAPGKERELVATINYSGGGTNYADSVKGRYTISRDNATNTVSLQMNSLKPDDTAVYYCAARWLWRIPYDYWGEGTQVTVSS | high polyreactivity
QDQHVETGGGLVQAGGSLRLSCAASGSIFFLYMGWYRKAHGKETELVATISSGGSTNYADSVMGRFTISRDNAKHTVYLQMNSLKPVATAVYYFNARGSERLDTYSLYDYWGQGTQVTVSS | low polyreactivity
QVQLVESGGGLVKAGGSLRLSCAASGFIFGYNAMGWDRQAPGKERELVAVITDSSDSTYYADSVKGRFTISRDNAMNTVYLQMNSLKPEDTAVYYCDTDYGYAGDYWGQGTQVTVSS | low polyreactivity

###

Test: yeast display, Sf9 membrane polyspecificity reagent, FACS + sequencing; frameworks hold sequencing errors

query-sequence | polyreactivity (PSR sort gate)
QVQLVESGGGLVQAGGSLRLSCAASGSIFGRNAMGWYRQAPGKERELVAVITSTGGSTYYADSVKGRFTISRDNAKNTVYLQMNSLKPEDTAVYYCAARTRYRYGYWGQGTQVTVSS | high polyreactivity
QVQRVESGGGLVQAGGSLRLSCAASGSTFPRNAMGWYRQAPGKEREFVAAISYSGGRTYYADSVKGRFTISRDNAKNTVYLQMNSLKPEDTAVYYCAAQPYSHVRGKSYGYWGQGTQVTVSS | high polyreactivity
QVQLVESAAGLVQAGGSLRLSCADSGSTIYRYAMGWYRQAPGKERELVAAISTTGGSTFYADSVKGRFTISRDNAKNTVYLQMNSLKPEDTAVYYCNAYYRGTYDYWGQGTQVTVSS | high polyreactivity

###

Assay: yeast display, Sf9 membrane polyspecificity reagent, FACS + sequencing; frameworks hold sequencing errors

query-sequence | polyreactivity (PSR sort gate)
QVQLVESGGGLVQAGGSLRLTCAASGYIFGVYAMGWYRQAPGKERELVATISSGGSTNYADSVKGRFTISRDNAKNTVYLQMNSLKPEDTAVYYCAAERYWTYYSGFVYGGDNYWGQGTQVTVSS | low polyreactivity
QVHLVESGGGLVQAGGSLRLSCAATGSTFPSYTMGWYRQAPGKERELVAVITLRGGSTYYADSVKGRFTISRDNAKNTVYLQMNSLKPEDTAVYYCAANGQLQGWFDMYYWGQGTQVTVSS | low polyreactivity

###

Assay: yeast display, Sf9 membrane polyspecificity reagent, FACS + sequencing; frameworks hold sequencing errors

query-sequence | polyreactivity (PSR sort gate)
QVQLVESGGGLVQAGGSLRLSCAASGFIFRGNAMGWYRQAPGKERELVAAISKRGGSTNYADSVKGRFTISRDNAKNTVYLQMNSLKPEDTAVYYCNAEGIYRQPRGYVYRYDYWGQGTQVTVSS | high polyreactivity
QVQLVESGGVLVQAGGSLRLSCAASGSTIRLYAMGWYRQAPGKERELVAAIRSGGNTNYADSVKGRFTISRDNAKNSVYLQMKSLKREDTAVYYCNGFCAQLPVPNYDYWGQGPQVTVSS | high polyreactivity
QVQLVESGVGLVQAGGSLRLSCAASGNILGYNAIGWYRQAPGKETELVAAISWIGGSTYYADSVKGRFTISRDNAKNTVYLQMNSLKPEDTAVYYCAARYRTYFTYEYWGQGTQVTVSS | low polyreactivity
QVQLVESGGGLVQAGVSLRIRCAASGSIFFFNAMGWYRQAPGKEREFVAAITSSSGRTYYAYSVKVRFTISRDNAKNTVYLQMKSLKPEDTAVYYCAAQVPEDNETVDYWGQGTQVTVSS | low polyreactivity
QVQLVESGGGLVQAGGSLRLSCAASGSIFSYNVMGWYRPAPGKERELVAAITQSGTSTYYADSVKGRFTISRDNAKNTVYLQMNSLKPEDTAVYYCAVDWYSAYGGYYWSQYDYWGQGTQVTVSS | low polyreactivity
